assayedTarget: hCRTH2 receptor (Homo sapiens, UniProt Q9Y5Y4)
Construct: expressed in transfected cells; host or cells: HEK293
Sequence (Q9Y5Y4 whole entry): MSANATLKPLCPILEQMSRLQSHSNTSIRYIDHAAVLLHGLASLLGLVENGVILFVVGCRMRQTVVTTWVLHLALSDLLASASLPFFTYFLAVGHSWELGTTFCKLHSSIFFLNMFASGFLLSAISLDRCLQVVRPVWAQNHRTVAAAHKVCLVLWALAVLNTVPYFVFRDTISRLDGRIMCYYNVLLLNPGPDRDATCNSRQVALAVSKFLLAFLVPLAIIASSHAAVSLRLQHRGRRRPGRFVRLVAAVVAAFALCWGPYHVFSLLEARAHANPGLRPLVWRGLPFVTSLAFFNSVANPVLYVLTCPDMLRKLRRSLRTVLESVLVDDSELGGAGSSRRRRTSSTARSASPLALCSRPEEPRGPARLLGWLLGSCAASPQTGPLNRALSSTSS
testDescription: Radioligand displacement assay (3H-PGD2) on hCRTH2 receptor membranes
Format: binding
settings: antagonistic activity, 3H-PGD2 radioligand displacement, HEK293-hCRTH2 membranes
pIC50: −log10 of the molar value.
metric: pIC50

(1) Cc1nn(CCC(=O)N2CCc3cc(F)ccc3[C@H]2c2cc(Cl)ccc2OCC(=O)O)c2cccc(F)c12 [Example 391]
(2) COc1cncc(OCC(=O)N2CCc3ccccc3C2c2cc(Cl)ccc2OCC(=O)O)c1 (racemic) [Example 477]
Q. Compare 1 and 2 and name the one whose reported pIC50 is smaller. Select an item and report its label.
A. 2
(2: 6.54, 1: 6.80)

(1) O=C(O)COc1ccc(Cl)cc1[C@@H]1c2ccc(F)c(F)c2CCN1C(=O)OCn1ncc2ccccc21 [Example 322]
(2) CC1(C)CC1C(=O)N1CCc2ccccc2C1c1cc(Cl)ccc1OCC(=O)O (racemic) [Example 466]
Q. For the two items 1 and 2 , which reports the higher pIC50 value? Select an item and report its label.
A. 1
(1: 9.28, 2: 7.62)
